FYI, the data here is from ChEMBL document CHEMBL3988442.

Target: Tyrosyl-tRNA synthetase, putative (Trypanosoma cruzi (strain CL Brener))
Experiment: Trypanosoma cruzi tyrosyl tRNA synthetase (TcYRS) _High Tyrosine SOP
Assay type: functional
Design: scale not given: in the data most compounds retested in dose-response had high values
Settings: 30 µM

{"columns": ["Compound", "Percent Effect [%]"],
 "data": [
  ["Cc1noc(Cl)c1CC(=O)N1CCCC(n2cccn2)C1 (stereo unspecified)", 10.3],
  ["CC(C)Oc1ccc(CSc2nnc(CN3CCCC3=O)o2)cc1", 1.64],
  ["O=C1NCC2(CCCN(Cc3ccccc3F)C2)Oc2ccccc21 (stereo unspecified)", 3.23],
  ["Cc1noc(C2CCC3(CCN(C(=O)C4=CCCCC4)CC3)O2)n1 (stereo unspecified)", 8.6],
  ["COCCN1C(=O)CC(N2CCN(c3ccc(OC)cc3)CC2)C1=O (stereo unspecified)", 8.42],
  ["CC(C)n1cc(CN2CCCN(C(=O)c3cc(Cl)c[nH]3)CC2)cn1", 2.46],
  ["Cc1ccc(S(=O)(=O)Nc2ccc(-n3cccc3C(=O)O)c(C)c2)s1", -9.57],
  ["O=C(Cn1cccnc1=O)NC(Cc1cccs1)c1ccccn1 (stereo unspecified)", 5.38],
  ["Cc1cc(C)n(CC2CN(Cc3nc(-c4ccoc4)no3)CCO2)n1 (stereo unspecified)", 3.45],
  ["N#Cc1ccc(C(=O)N2CCC3(CC2)C(=O)Nc2ccccc23)cn1", 10.8],
  ["CCCc1nc(N2CCN(CC)CC2)c2c(n1)c(C)nn2CC", 7.53]
]}
